The entries below are paired with their reported fold repression.
- STUDY_SYSTEM: T1, ECF20_992
- T1 chain: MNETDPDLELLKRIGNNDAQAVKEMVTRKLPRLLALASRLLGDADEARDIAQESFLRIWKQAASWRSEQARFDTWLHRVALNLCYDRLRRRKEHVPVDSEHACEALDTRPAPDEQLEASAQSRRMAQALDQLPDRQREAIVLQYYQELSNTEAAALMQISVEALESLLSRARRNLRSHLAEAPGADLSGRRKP
OUTCOME_MEASURE: fold repression

{"BINDER": "AS03_1244 (protein) MKQFDPDVNIRPKEDSIRHYSVPDDYFASFTDKLMAQIPAVKEENTVVVPSVALWPKLRPLLYLAASFLLMIGMFKAFSLFGVGSDTGRTTSTSAGLVALDHGDTRWSEDTDYRDFLHDNCAETVSDEWVLTDFSE", "OUTCOME_MEASURE": "fold repression", "VALUE_OBSERVED": 1.93}
{"BINDER": "AS33_375 (protein) MMALSKKMLEQEPSEIELLLPWHAAGTLNARDARRVEDALARDPELAKQYAAIRGEYEETIHLNESLGAPSARAMQKLFGAIDAEPARETGSLPLSARIATFFASLSPRTLAWSASLGAVALVLQAGIIGAVLMKTQPTTFQTASLSTSAPITRELGAAVAPARALVRFTPEARVADITALLDSYQASIIGDAKGGMFRLQFDKAMSQDELASLLGRMQREKFVNLAVAAP", "OUTCOME_MEASURE": "fold repression", "VALUE_OBSERVED": 20.7}
{"BINDER": "AS15_524 (protein) MNFGVEDMIEHVPMEDKRKGAAALDEARLRQQAIGVKLRQMFDEVVNEPVPDEFLAILRKAERPAGGE", "OUTCOME_MEASURE": "fold repression", "VALUE_OBSERVED": 5.56}
{"BINDER": "AS25_1643_cl43 (protein) MTTDSNFNDPCRRQFSRDLPQKMARHTNEATGAMDMVKRDRFELLSAYLGGEVTAAERRQVEDWPANDVAVQRLYSRLLKLRQGIRTMPIPTAQQSPETTAEQVFAKVNRRSRLAWKLGGAAVAACVIGAVTNWLPGRQTGIPQLAQQPQEQPTQAVTTPDALPMIALNNPVIEIPKAAVASPTKFIQPQPQLGEIPPDIN", "OUTCOME_MEASURE": "fold repression", "VALUE_OBSERVED": 1.99}
{"BINDER": "AS03_1198 (protein) MDKDFDFDNIGKRTPYRTPDNFFEETQRKILERTVDEQRKKRRLKRIIPTVIAVAAVLAGILFTPSLRYMNTDTPSASNILAVDKNNVTTDPVDKWIKELSDEELEELVSFSENDIFLN", "OUTCOME_MEASURE": "fold repression", "VALUE_OBSERVED": 0.888}
{"BINDER": "AS27_1331 (protein) MSAADKDPDKHSADADPPLTVELLADLQAGLLDDATAARIRSRVRSDPQAQQILRALNRVRRDVAAMGADPAWGPAARPAVVDSISAALRSARPNSSPGAAHAARPHVHPVRMIAGAAGLCAVATAIGVGAVVDAPPPAPSAPTTAQHITVSKPAPVIPLSRPQVLDLLHHTPDYGPPGGPLGDPSRRTSCLSGLGYPASTPVLGAQPIDIDARPAVLLVIPADTPDKLAVFAVAPHCSAADTGLLASTVVPRA", "OUTCOME_MEASURE": "fold repression", "VALUE_OBSERVED": 6.81}
